Test system: SW1990
assay: Cytotoxicity against human SW1990 cells
Format: functional, cell-based
measurement_label: pIC50
Note: pIC50 values are expressed as the negative base-10 logarithm of concentration in M.

# pIC50 measured on SW1990 for item COc1cc(/C=C/C(C)=O)oc(=O)c1C [NIGERAPYRONE E] = 4.42

====

Below is a list of entries, each paired with its recorded pIC50 value.
Tested on: HepG2
assay: Cytotoxicity against human HepG2 cells
Type: functional, cell-based
Note: pIC50 values are expressed as the negative base-10 logarithm of concentration in M.

O=c1[nH]cc(F)c(=O)[nH]1
3.96
COc1cc(/C=C/C(C)=C/C(C)=O)oc(=O)c1C
4.09
COc1cc(-c2cc(C)cc(C)c2-c2ccccc2)oc(=O)c1C
4.21

Proceed to the following item.
Value of pIC50 reported for the compound COc1cc(/C=C/C(C)=O)oc(=O)c1C is 4.07

====

System: MDA-MB-231
assay: Cytotoxicity against human MDA-MB-231 cells
Format: functional, cell-based
Below is a list of entries, each paired with its recorded pIC50 value.
Note: pIC50 values are expressed as the negative base-10 logarithm of concentration in M.

O=c1[nH]cc(F)c(=O)[nH]1
4.23

Proceed to the following item.
Value of pIC50 reported for the compound COc1cc(/C=C/C(C)=O)oc(=O)c1C is 4.32
